# System: MDA-MB-468 breast
# PROTOCOL_DESCRIPTION: NCI tumour cell line growth inhibition, 48 h
ASSAY_ENDPOINT: TGI (µM)
Numbers only, in µM.

Worked examples, 5 compounds total:
COMPOUND	TGI, µM
CN1CCN(c2ccc(C(=O)/C=C/c3ccc(OC(F)F)cc3)cc2)CC1	14.5
COC(=O)[C@H]1C(=O)[C@@]2(C)[C@H]([C@H](OC(=O)c3ccccc3)[C@]3(O)C[C@H](OC(=O)[C@H](O)[C@@H](NC(=O)c4ccc(F)cc4)c4ccccc4)C(C)=C1C3(C)C)[C@]1(OC(C)=O)CO[C@@H]1C[C@@H]2O	6.46
Cc1ccc2c(c1)C(C)Cc1c(ncnc1-n1cnc3cc(C)ccc31)N2C (stereo not given)	19
C=C(C)[C@@H]1CC[C@]2(C(N)=O)CC[C@]3(C)[C@H](CC[C@@H]4[C@@]5(C)CC[C@H](O)C(C)(C)[C@@H]5CC[C@]43C)[C@@H]12	11.9
NC(=NCCCC1(c2ccccc2)CCCC1)Nc1ccc(Cl)cc1	3.25

--- query ---
I'm curious: which TGI was measured for COc1cc(-c2nc(NC(C)=O)sc2-c2ccnc(NCCNS(=O)(=O)c3ccccc3)n2)ccc1Cl tested on MDA-MB-468 breast?
9.61

---

# System: MDA-MB-468 breast
# PROTOCOL_DESCRIPTION: NCI tumour cell line growth inhibition, 48 h; in the data active means GI50 below about 0.43 µM; inactive means the rest
Hi there, use one of these labels in your reply, thanks! 1 for active, -1 for inactive

Some entries whose results are on file:
COMPOUND	LABEL_CLASS
COC(=O)[C@H]1[C@@H](O)[C@@]2(O)c3c(OC)cc(O[C@@H]4O[C@@H]([C@H](O)CO)CO[C@H]4OC)cc3O[C@@]2(c2ccc(OC)cc2)[C@@H]1c1ccccc1	1
O=C1/C(=C\c2ccc(F)cc2)CN(C(=O)c2ccc([N+](=O)[O-])cc2)C/C1=C\c1ccc(F)cc1	-1
Cc1cccc(-c2nn3c(c2-c2ccnc4ccc(C(N)=O)cc24)CCC3)n1	-1
O=C(N/N=C/c1ccc(B(O)O)o1)c1[nH]c2ccc(Br)cc2c1-c1ccccc1	-1
Cc1ccc2c(c1)C(C)Cc1c(ncnc1-n1cnc3cc(C)ccc31)N2C (stereo unspecified)	1

// param item: COc1cc(-c2nc(NC(C)=O)sc2-c2ccnc(NCCNS(=O)(=O)c3ccccc3)n2)ccc1Cl ; yields the recorded call
-1

---

# Tested on: MDA-MB-468 breast
# PROTOCOL_DESCRIPTION: NCI tumour cell line growth inhibition, 48 h
ASSAY_ENDPOINT: TGI

These solved cases illustrate the format of a correct answer.
MOLECULE	EXPERIMENTAL_TARGET	RESULT
O=C(N/N=C/c1ccccc1O)C(O)(c1ccccc1)c1ccccc1	MDA-MB-468 breast	> 100 µM
CN[C@@H](C)C(=O)N[C@H]1CN(C(=O)CC(C)C)CC[C@H]2CC[C@@H](C(=O)NC(c3ccccc3)c3ccccc3)N2C1=O	MDA-MB-468 breast	> 100 µM
C[C@@H](N)C1CCC(C(=O)Nc2ccncc2)CC1 (some centres undefined)	MDA-MB-468 breast	> 100 µM

Here's the next entry for you.
Which TGI value belongs to COc1ccccc1-c1cc(/C=C2\C(=O)Nc3ncc(Br)cc32)cc(Br)c1O ?
> 25 µM

# credit: PubChem BioAssay (NCI)
